Exercise: for every item that follows, state its recorded TGI.
- System: SNB-78 CNS
- ASSAY_EXPLANATION: NCI tumour cell line growth inhibition, 48 h

The value of TGI measured for the molecule COc1cc([N+](=O)[O-])ccc1NC(=O)c1cccc([N+](=O)[O-])c1O turned out to be > 100 µM

TGI reading for COC(=O)/C(=N/NC(C)(C)C)C(C(=O)OC)C(=O)C(=O)Nc1nc2ccc([N+](=O)[O-])cc2s1 (stereo not given) : > 100 µM

get_value(item= COC(=O)C1=C(\O)C[C@@]2(C)CC[C@@H](C(=O)OC)C2C/C=C\1C(=O)OC (stereo not given in full) , readout=TGI) returns > 100 µM

response.value for CNC(C)Cc1ccccc1OC (stereo not given) (field: TGI) = > 100 µM

CN1CCc2cc3c4cc2C1Cc1ccc(cc1)Oc1cc(ccc1O)CC1c2c(cc(O)c(c2O4)O3)CCN1C (stereo not given) has a reported TGI of 21.3 µM

---

Please respond with reported TGI for every item in the list.
- Tested on: SK-MEL-28 melanoma
- ASSAY_EXPLANATION: NCI tumour cell line growth inhibition, 48 h

Entry COC(=O)c1ccc(/C=C2\Oc3cc(O)ccc3C2=O)cc1 , TGI reported as > 100 µM

What the record says about CC1(C)CC(N2CCN(C3CC(C)(C)NC(C)(C)C3)CC2)CC(C)(C)N1 : TGI is > 100 µM

Sure, the documented TGI for c1ccc2c(c1)N=C(c1ccc3ccccc3c1)CC(c1cccc3ccccc13)S2 (centres undefined) is > 100 µM

The compound COc1cc([N+](=O)[O-])ccc1NC(=O)c1cccc([N+](=O)[O-])c1O showed TGI equal to > 100 µM

Lab note: measured TGI of CNCCN(C)Cc1cn[nH]c1-c1ccc(OC2CC(OCCC3CCOCC3)C2)cc1 (centres undefined) was > 100 µM

Looking up CO/N=C(\C)c1cccc(Nc2nc3ccccc3c3occc23)c1 , I see its TGI listed as 27.6 µM

The measured TGI associated with Cc1ccc(S(=O)(=O)CC2(Br)CCc3ccccc3C2=O)cc1 (centres undefined) reads 38.5 µM

The reported value for c1ccc([P+](c2ccccc2)(c2ccccc2)c2ccc(-c3ccc([P+](c4ccccc4)(c4ccccc4)c4ccccc4)cc3)cc2)cc1 in terms of TGI is > 100 µM

// recorded TGI for CCOP(=O)(OCC)C(Nc1cccc(F)c1)c1ccc(N(C)C)cc1 (centres undefined) : > 100 µM

Briefly, TGI measured for CCOC(=O)c1c2ccc(/C=C/c3ccccc3)ccc-2c(C(=O)OCC)c1N : > 100 µM

TGI measured on O=c1oc2c/c(=C\c3ccccn3)c(=O)c3cccc1c3-2 = > 100 µM

COc1ccc(/C=C2\CCC(Cc3ccccc3)(CN(C)C)C2=O)cc1 (centres undefined) yielded TGI of > 100 µM

Entry COC(=O)/C=C(\C)CC/C=C(\C)CCC(O)C(C)(C)O (centres undefined) — recorded TGI = 38.2 µM

So, COC(=O)C1(O)c2ccccc2N=C2C1CCN2C (centres undefined) ? Its TGI was > 100 µM

---

- Test system: SF-268 CNS
- ASSAY_EXPLANATION: NCI tumour cell line growth inhibition, 48 h
*1 amine or outer side, *2 acyl side, *3 side chain or, on linkers, in order; H or OH if unused. Where a SMILES comes first, the peptide text is derived from it. The star is where a group is joined. γGlu = O=C(O)[CH](CCC(=O)[*:2])N[*:1]; NHOH = ON*
TEST_READOUT: TGI

// TGI value for N#CC1CCCCC1NC1(C#N)CCCCC1 (centres undefined) : > 100 µM

Data point: CCCCCCC1CC(=O)C1(Cl)Cl (centres undefined) ; TGI = 66.5 µM

// recorded TGI for ClCCCCOC1CCCCO1 (centres undefined) : > 100 µM

TGI reported for this compound CCN1C(=O)N(CC)C2C1NN=c1s/c(=C\c3ccc(OC)cc3)c(=O)n12 (centres undefined) : > 80.1 µM

Sample NC(=O)c1ncn(Cc2ccccc2)c1CNC(N)=S ; TGI observed: > 100 µM

The value of TGI measured for the compound C[N+]1(C)C[C@@H](O)C[C@@H]1C(=O)[O-] turned out to be > 100 µM

Measured TGI, COc1c(C)c(O)c2c(c1C)OC(c1ccccc1)CC2=O (centres undefined) : > 100 µM

Kindly note the recorded TGI for COc1cc(NC(=O)c2ccccc2Nc2ccnc(C(F)(F)F)c2)cc(OC)c1OC , which is > 100 µM

TGI reported for this compound N=C1C(c2nc3ccccc3s2)=C(O)CN1c1cc(Cl)cc(Cl)c1 : > 100 µM

According to the records, this compound Cn1cnc([N+](=O)[O-])c1Sc1nc2ccc([N+](=O)[O-])cc2[nH]1 displays TGI of 53.1 µM

Lookup result for Nc1nc2ncn(CC(O)COC(=O)c3ccccc3)c2c(=O)[nH]1 (centres undefined) ; measured TGI: > 100 µM

So, O=C1OCCC[C@H]2O[C@@H](COCc3ccccc3)C[C@@H]12 ? Its TGI was > 100 µM

// field: TGI; key: CCOC(=O)CNC(=O)C(CCC(=O)NO)NC(=O)CCC(N)C(=O)O (centres undefined) (γGlu-Glu(NHOH)-Gly-OEt; configuration not given here) ; value = > 100 µM

Field TGI (entry CCOC(=O)Nc1cc2c(c(N)n1)N=C(c1ccc3ccccc3c1)CN2 ) reads > 86.1 µM

Noted for COc1ccc2c(c1)CCc1c-2n(CCN2CCOCC2)c2ccc(OC)cc12 : its TGI reads > 100 µM

The compound listed as COC(=O)[C@]12CC[C@@H](C)[C@H](C)[C@@H]1C1=CC[C@@H]3[C@@]4(C)CC(=O)[C@H](O)[C@@](C)(CO)[C@@H]4C(=O)C[C@@]3(C)[C@]1(C)CC2 shows TGI equal to 26.5 µM

CO/N=C(\C)c1cccc(Nc2nc3ccccc3c3occc23)c1 has a reported TGI of 32.5 µM

The measured TGI associated with COc1ccc2nc3c([N+](=O)[O-])ccc(NCCN(C)C)c3c(NCCN(C)C)c2c1 reads > 10 µM

// sample Cc1ccc(S(=O)(=O)CC2(Br)CCc3ccccc3C2=O)cc1 (centres undefined) , its TGI was 36.5 µM

---

- System: SR leukemia
- ASSAY_EXPLANATION: NCI tumour cell line growth inhibition, 48 h; in the data active = GI50 below about 0.43 µM; inactive = the rest
Entry note: the call must match one of active, inactive

Task: Name the outcome recorded for N[C@@H](CSSC[C@H](N)C(=O)N1CCn2cc(-c3ccccc3)nc2[C@@H]1CC1CCCCC1)C(=O)N1CCn2cc(-c3ccccc3)nc2[C@@H]1CC1CCCCC1 in the assay.
Result: inactive

Task: Identify the outcome logged in this assay for the compound shown: O=C1/C(=C/c2ccccc2[N+](=O)[O-])COc2ccc(O)c(O)c21
Result: inactive

Task: Please let me know the test result on file for O=C1NC(=O)C(c2c[nH]c3ccccc23)=C1c1ccccc1 .
Result: inactive

Task: Assay result, entry CC(=O)C(C=O)C(C)=O.CC(=O)CC(C)=O.CC(=O)CC(C)=O.[Ru] — outcome?
Result: inactive

Task: // outcome(item) with item = Oc1cccc(-c2nc(-c3ccccc3)[nH]c2-c2ccncc2)c1
Result: inactive

Task: Could you check what this test reported for COC(=O)[C@]12CC[C@@H](C)[C@H](C)[C@@H]1C1=CC[C@@H]3[C@@]4(C)CC(=O)[C@H](O)[C@@](C)(CO)[C@@H]4C(=O)C[C@@]3(C)[C@]1(C)CC2 ?
Result: inactive

Task: Query: recorded result category for COc1cc(Cn2c(SCC(=O)Nc3ccc(Cl)cc3)nc3ccccc3c2=O)cc(OC)c1OC in this test
Result: inactive

Task: Could you kindly confirm the outcome this assay logged for CCc1ccc([O-])c(C=NCCCN(C)CCCN=Cc2cc(C)ccc2[O-])c1.[Co+3].[N-]=[N+]=[N-] ?
Result: inactive

Task: Kindly provide the recorded test outcome for the following compound: CCOC(=O)c1cc(-c2ccccc2)[nH]c1N/N=C/c1c(Cl)cccc1Cl
Result: active

Task: Answer briefly: the call reported for CCCc1n(Cc2ccc3ccccc3n2)cc[n+]1Cc1ccc2ccccc2n1 in this assay.
Result: inactive

Task: Each compound tested received a call. Report the one for N=C1C(c2nc3ccccc3s2)=C(O)CN1c1cc(Cl)cc(Cl)c1 .
Result: inactive

Task: Name the outcome recorded for COC(=O)c1ccc2c(C(=Nc3ccc(N(C)C(=O)CN4CCN(C)CC4)cc3)c3ccccc3)c(O)[nH]c2c1 in the assay.
Result: inactive

---

- Tested on: UACC-257 melanoma
- ASSAY_EXPLANATION: NCI tumour cell line growth inhibition, 48 h
*1 amine or outer side, *2 acyl side, *3 side chain or, on linkers, in order; H or OH if unused. Where a SMILES comes first, the peptide text is derived from it. The star is where a group is joined. γGlu = O=C(O)[CH](CCC(=O)[*:2])N[*:1]; NHOH = ON*
TEST_READOUT: TGI

Recorded TGI (molecule Cc1ccc(S(=O)(=O)Oc2nc3nc4ccccc4nc3nc2OS(=O)(=O)c2ccc(C)cc2)cc1 ): > 100 µM

Sample O=C1N(CN2CCOCC2)CN(CN2CCOCC2)C(=O)N1Cc1ccc(CN2C(=O)N(CN3CCOCC3)CN(CN3CCOCC3)C2=O)cc1 ; TGI observed: > 100 µM

The recorded TGI for entry O=S(=O)(Oc1ccc2ccccc2c1-c1c(OS(=O)(=O)C(F)(F)F)ccc2ccccc12)C(F)(F)F equals 8.3 µM

// field: TGI; key: Cc1c(N=Nc2ccc(Cl)cc2)c(C)n(C2OC(CO)C(O)C(O)C2O)c(=S)c1C#N (centres undefined) ; value = 54.1 µM

The recorded TGI for CCO[C@]12CCC[C@H]1[C@@H]1C(=O)c3ccccc3C(=O)C1=C(C)O2 is > 100 µM

Memo: CCc1ccc2c(c1)C(=O)c1c-2n(CCCN)c(=O)c2cc([N+](=O)[O-])ccc12 , reported TGI: 3.42 µM

Record summary for Cc1cn2c(/C=C3/C(=O)Nc4ccc(Cl)cc43)c(C)nc2s1 : reported TGI = > 100 µM

For CCOC(=O)CNC(=O)C(CCC(=O)NO)NC(=O)CCC(N)C(=O)O (centres undefined) (γGlu-Glu(NHOH)-Gly-OEt; configuration not given here) the molecule record lists TGI as > 100 µM

Value of TGI reported for the molecule COC1=CC(=O)C2C(C1=O)C(c1ccc(Cl)cc1)[C@@H]2C (some centres undefined) is > 100 µM

Origin of values: PubChem BioAssay (NCI)
